# measuredOn: Left-right determination factor 2 (Homo sapiens)
# measurementProtocol: LEFTY2 binders on small-molecule microarrays, primary screen, biochemical, small-molecule microarray, 635 nm fluorescence scan (AID 1110)
# measurementSetup: LEFTY2 binding, higher = more signal
Provide the reported composite z-score of each item.
One number for each entry.

Recorded results for 2 compounds are shown here.
Find composite z-score for CCN(CC)CC(O)CN1CCCCc2nc(C)c(C)cc21 (stereo unspecified) on Left-right determination factor 2 (Homo sapiens) and write it down.
0.31

Find composite z-score for CCOC(=O)[C@H](Cc1ccccc1)NC(=O)CCC1CC(OC(=O)NCCc2ccc(F)cc2)CC2(CCCC(COC(=O)NCc3cccc(C(F)(F)F)c3)O2)O1 (stereo partly specified) on Left-right determination factor 2 (Homo sapiens) and write it down.
0.763

Provide each entry's composite z-score from the list below.
1. CO[C@H]1COC(=O)[C@H](CCSC)NC(=O)CC=C[C@@H](C)[C@H](OC)COC(=O)[C@@H](OCc2ccccc2)C=C[C@@H]1C
2. CC(=O)OC[C@H]1O[C@@H](ON=C(C)CCN2CCCCc3nc(C)c(C)cc32)[C@H](OC(C)=O)[C@@H](OC(C)=O)[C@@H]1OC(C)=O
3. COC(=O)[C@H](C)NC(=O)CCC1CC(OC(=O)NCc2ccc3c(c2)OCO3)CC2(CCCC(COC(=O)NCCC(C)C)O2)O1 (stereo partly specified)
4. COC(=O)[C@H](C)NC(=O)CCC1CC(OC(=O)NCCc2ccc(F)cc2)CC2(CCCC(COC(=O)NCCOc3ccccc3)O2)O1 (stereo partly specified)
5. CO[C@@H]1C=CCC(=O)N[C@@H](C)C(=O)OC[C@@H](OC)[C@H](C)C=CCC(=O)OC[C@H]1C
6. O=C1[C@H]2[C@H]3[C@H](O)[C@H](O)CC(=NOC[C@@H](O)COCc4ccco4)[C@@H]3CC[C@H]2C(=O)N1Cc1ccccc1

1: 0.753; 2: 0.962; 3: 0.694; 4: 0.781; 5: 1.48; 6: 1.19

Provide each entry's composite z-score from the list below.
1. C=C(C)C(=O)OC[C@H]1CN2[C@@H](CC[C@@H](C)[C@@H]2c2ccc(Br)cc2)C(=O)O1
2. CC(CCN1CCc2nc(-c3ccccc3)c(-c3ccccc3)cc2C1)=NO[C@@H](C)c1cc(-c2c(C)cc(C)cc2C)no1
3. CO[C@H]1C[C@@H]2C[C@H](O)CC(CC(=O)O[C@@H](C=CCC(C)C)C[C@@H]3CC[C@H](C)[C@@H](C1)O3)O2
4. COC(=O)[C@H](C)NC(=O)CCC1CC(OC(=O)NCc2ccc3c(c2)OCO3)CC2(CCCC(COC(=O)NCc3ccccc3)O2)O1 (stereo partly specified)
5. CC[C@@H](c1ccccc1)n1c(=O)n2n(c1=O)[C@H]1[C@H](O)[C@@H]3O[C@@H]3C(=NOCc3ccccc3)[C@H]1CC2
6. Cc1cc(C)c(-c2cc([C@H](C)ON=C[C@@H](C)[C@H](OCc3ccccc3)C(C)C)on2)c(C)c1

1. 0.373
2. -0.372
3. 0.748
4. 0.508
5. 0.244
6. -0.0341

Provide each entry's composite z-score from the list below.
1. COC(=O)[C@H](C)NC(=O)CCC1CC(OC(=O)NCCc2ccc(F)cc2)CC2(CCCC(COC(=O)NCC3CCCCC3)O2)O1 (stereo partly specified)
2. C[C@H]1CC[C@@H](C(=O)O)N[C@@H]1c1cccc(N2CCCC2=O)c1

1. 0.573
2. 0.263
